The reported numbers originate from paper PMC4753485.

TARGET_SYSTEM: TRPV2 (Rattus norvegicus)
Sequence (Q9WUD2 whole entry): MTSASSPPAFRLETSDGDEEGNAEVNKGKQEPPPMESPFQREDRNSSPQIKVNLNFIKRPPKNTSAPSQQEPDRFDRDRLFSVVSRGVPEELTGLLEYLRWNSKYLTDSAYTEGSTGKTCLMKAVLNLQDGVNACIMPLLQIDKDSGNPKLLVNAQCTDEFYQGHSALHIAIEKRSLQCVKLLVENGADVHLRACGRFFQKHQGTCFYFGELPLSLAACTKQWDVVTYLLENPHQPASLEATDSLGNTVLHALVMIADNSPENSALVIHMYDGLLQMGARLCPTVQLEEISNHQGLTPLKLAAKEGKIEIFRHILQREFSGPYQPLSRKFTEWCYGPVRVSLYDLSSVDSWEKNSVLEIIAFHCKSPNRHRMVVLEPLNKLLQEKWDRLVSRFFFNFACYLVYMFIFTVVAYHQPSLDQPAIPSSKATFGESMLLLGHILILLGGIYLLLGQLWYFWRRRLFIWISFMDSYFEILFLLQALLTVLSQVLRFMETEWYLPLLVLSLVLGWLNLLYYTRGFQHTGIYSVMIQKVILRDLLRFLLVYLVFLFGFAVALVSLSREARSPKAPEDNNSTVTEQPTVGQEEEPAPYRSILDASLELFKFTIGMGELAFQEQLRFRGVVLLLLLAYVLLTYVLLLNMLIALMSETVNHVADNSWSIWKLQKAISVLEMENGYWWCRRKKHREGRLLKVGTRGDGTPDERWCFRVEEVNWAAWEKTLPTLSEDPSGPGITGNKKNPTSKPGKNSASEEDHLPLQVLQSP
ASSAY_METHOD_TEXT: cell-based
DETAILS: EC50 of 2-APB-evoked TRPV2 whole-cell current, pH 5.5
OBSERVED_PROPERTY: pEC50
Hey, just a heads up that pEC50 is the negative log base 10 of the concentration in molar.

(Q) Endpoint output: pEC50 of NCCOB(c1ccccc1)c1ccccc1 [2-APB, 2-aminoethoxydiphenyl borate] . Value?
(A) 3.95

====

TARGET_SYSTEM: UniProt Q9WUD2
ASSAY_METHOD_TEXT: cell-based
DETAILS: EC50 of 2-APB-evoked TRPV2 whole-cell current, pH 7.4
Method: Full-length cDNA for murine TRPV3 was isolated and subcloned into pIRES2-EGFP, as previously described. The wild-type rat TRPV1, TRPV2 and TRPM8 cDNAs were generously provided by Dr. Feng Qin (State University of New York at Buffalo, Buffalo). […] Transfected HEK293 cells were reseeded on 12 mm round glass coverslips (Warner Instruments) one day after transfection. […] Voltage commands were made from the Patchmaster program, and the currents were recorded at 5 kHz. […]
OBSERVED_PROPERTY: EC50 (µM)
Dear colleague, please return just the value in µM, with no unit written.

(Q) Returns the measured EC50 for the input molecule. Input: NCCOB(c1ccccc1)c1ccccc1 [2-APB, 2-aminoethoxydiphenyl borate]
(A) 522

====

TARGET_SYSTEM: mouse TRPV3 (Mus musculus)
Construct: Full-length cDNA for murine TRPV3 was isolated and subcloned into pIRES2-EGFP; expressed in transfected cells; host or cells: HEK293 (transient)
Sequence (Q8K424 whole entry): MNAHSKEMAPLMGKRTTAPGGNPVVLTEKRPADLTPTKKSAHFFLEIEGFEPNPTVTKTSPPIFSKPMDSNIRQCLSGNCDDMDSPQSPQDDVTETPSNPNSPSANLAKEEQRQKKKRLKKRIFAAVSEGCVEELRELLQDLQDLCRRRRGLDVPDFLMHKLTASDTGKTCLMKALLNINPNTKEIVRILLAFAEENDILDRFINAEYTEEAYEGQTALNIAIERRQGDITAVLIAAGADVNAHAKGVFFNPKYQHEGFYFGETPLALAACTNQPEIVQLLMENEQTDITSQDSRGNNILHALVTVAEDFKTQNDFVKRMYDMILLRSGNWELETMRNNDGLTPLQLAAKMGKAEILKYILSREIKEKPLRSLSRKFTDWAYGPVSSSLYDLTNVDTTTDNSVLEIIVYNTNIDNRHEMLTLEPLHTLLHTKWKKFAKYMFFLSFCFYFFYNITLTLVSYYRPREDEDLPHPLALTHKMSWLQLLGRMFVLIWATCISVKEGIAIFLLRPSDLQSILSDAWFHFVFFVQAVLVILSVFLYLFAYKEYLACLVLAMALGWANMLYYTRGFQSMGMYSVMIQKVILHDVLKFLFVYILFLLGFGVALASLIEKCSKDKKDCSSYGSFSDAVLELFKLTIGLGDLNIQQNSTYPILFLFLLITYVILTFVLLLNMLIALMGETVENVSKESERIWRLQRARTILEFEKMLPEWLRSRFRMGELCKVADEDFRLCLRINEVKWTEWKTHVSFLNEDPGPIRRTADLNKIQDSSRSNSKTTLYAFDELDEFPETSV
ASSAY_METHOD_TEXT: Whole-cell recordings of TRPV3 currents in HEK293 cells
Assay type: cell-based
DETAILS: EC50 of 2-APB-evoked TRPV3 whole-cell current, pH 7.4; after full sensitization; Vh −60 mV
OBSERVED_PROPERTY: pEC50
To interpret pEC50, take it as minus log10 of a concentration measured in moles per litre.

(Q) Entry NCCOB(c1ccccc1)c1ccccc1 [2-APB, 2-aminoethoxydiphenyl borate] : reported pEC50 = ?
(A) 4.44

====

TARGET_SYSTEM: TRPM8 (Rattus norvegicus)
Sequence (Q8R455 whole entry): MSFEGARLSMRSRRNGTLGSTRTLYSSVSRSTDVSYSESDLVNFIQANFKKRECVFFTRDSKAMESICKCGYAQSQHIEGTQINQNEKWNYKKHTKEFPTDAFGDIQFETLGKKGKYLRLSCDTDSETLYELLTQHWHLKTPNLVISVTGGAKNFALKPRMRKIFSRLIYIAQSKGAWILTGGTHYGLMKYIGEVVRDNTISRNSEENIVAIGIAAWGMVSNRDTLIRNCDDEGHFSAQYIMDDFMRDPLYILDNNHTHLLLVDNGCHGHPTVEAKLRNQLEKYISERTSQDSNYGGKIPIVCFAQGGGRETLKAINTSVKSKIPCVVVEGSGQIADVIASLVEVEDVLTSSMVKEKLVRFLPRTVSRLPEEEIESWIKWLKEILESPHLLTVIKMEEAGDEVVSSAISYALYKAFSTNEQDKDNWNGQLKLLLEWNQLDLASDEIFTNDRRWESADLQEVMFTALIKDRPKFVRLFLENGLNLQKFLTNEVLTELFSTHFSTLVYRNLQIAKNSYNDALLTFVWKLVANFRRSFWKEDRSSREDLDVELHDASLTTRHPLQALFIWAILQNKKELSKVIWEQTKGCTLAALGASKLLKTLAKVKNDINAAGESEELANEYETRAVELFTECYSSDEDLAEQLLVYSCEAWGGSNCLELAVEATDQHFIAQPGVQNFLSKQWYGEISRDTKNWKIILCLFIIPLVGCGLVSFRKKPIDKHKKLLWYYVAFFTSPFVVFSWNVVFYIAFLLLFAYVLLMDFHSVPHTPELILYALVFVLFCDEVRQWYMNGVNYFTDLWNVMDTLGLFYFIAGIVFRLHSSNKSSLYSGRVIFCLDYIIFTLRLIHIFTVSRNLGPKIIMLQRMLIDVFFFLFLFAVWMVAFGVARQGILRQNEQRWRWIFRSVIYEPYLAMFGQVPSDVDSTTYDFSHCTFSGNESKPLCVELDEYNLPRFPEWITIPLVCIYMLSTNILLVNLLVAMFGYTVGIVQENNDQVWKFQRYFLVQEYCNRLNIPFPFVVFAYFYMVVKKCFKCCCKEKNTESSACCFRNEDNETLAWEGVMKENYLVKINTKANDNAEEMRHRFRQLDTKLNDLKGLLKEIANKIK
ASSAY_METHOD_TEXT: cell-based
DETAILS: IC50 for inhibition of menthol-evoked TRPM8 current, pH 7.4; 100 μM menthol
OBSERVED_PROPERTY: pIC50
Units for pIC50: none; it is -log10 of a concentration expressed in mol/L.

(Q) Item under review: NCCOB(c1ccccc1)c1ccccc1 [2-APB, 2-aminoethoxydiphenyl borate] . Reported pIC50?
(A) 4.69
